Biological target: VR1 (human) (Homo sapiens, UniProt Q8NER1)
Construct: expressed in transfected cells; host or cells: CHO K1 cells (ECACC), stably transfected
Sequence (Q8NER1 whole entry): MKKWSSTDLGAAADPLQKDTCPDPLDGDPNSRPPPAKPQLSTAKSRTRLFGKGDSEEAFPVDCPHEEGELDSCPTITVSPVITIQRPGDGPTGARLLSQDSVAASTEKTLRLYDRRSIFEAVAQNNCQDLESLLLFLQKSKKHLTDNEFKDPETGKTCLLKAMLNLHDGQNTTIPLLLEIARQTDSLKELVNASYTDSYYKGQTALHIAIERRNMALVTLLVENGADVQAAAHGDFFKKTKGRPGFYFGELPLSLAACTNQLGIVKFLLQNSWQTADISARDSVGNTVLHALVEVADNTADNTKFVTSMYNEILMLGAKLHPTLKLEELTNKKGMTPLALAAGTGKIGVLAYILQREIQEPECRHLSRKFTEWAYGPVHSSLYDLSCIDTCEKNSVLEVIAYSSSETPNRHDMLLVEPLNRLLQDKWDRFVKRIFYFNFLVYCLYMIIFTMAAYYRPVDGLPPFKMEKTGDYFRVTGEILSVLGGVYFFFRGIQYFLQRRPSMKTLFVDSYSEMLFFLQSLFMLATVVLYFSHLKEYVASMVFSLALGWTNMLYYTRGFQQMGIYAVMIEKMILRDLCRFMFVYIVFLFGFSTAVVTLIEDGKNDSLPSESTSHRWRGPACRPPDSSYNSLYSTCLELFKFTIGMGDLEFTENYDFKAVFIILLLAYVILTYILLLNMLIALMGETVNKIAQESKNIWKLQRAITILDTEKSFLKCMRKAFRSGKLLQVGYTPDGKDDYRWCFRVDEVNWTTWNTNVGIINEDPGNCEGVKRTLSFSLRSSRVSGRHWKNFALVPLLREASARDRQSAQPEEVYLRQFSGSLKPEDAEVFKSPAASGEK
Assay: Functional study on vanilloid receptor (VR1), FLIPR Ca2+ assay in CHO K1 cells stably transfected with the VR1 gene
Format: cell-based
Conditions: CHO-K1, test compound 10 μM, 5 min incubation, then 100 nM capsaicin; compared to 10 μM CP
Counter-ions that a name gives are not always drawn.
QUANTITY: inhibition at 10 µM (%)
API: value field is a number in %; no unit string.

// below: answered compounds
# COMPOUND, inhibition at 10 µM, %
measured = [
    ("O=C1N=C(N2CCOCC2)SC1=CC(=Cc1ccccc1)c1ccccc1", 51.6),
    ("CC(C)(C)c1ccc(C=C2SC(N3CCOCC3)=NC2=O)cc1", 72.4),
    ("CC(=CC=C1SC(N2CCOCC2)=NC1=O)c1ccc(C(C)(C)C)cc1", 89.3),
    ("CN(C)c1ccc(C=C2SC(N3CCOCC3)=NC2=O)cc1", 44.5),
]

Would you kindly share the measured inhibition at 10 µM for `O=C1N=C(N2CCSCC2)SC1=CC(Cl)=Cc1ccccc1` ?
97.5

Fill in: inhibition at 10 µM of `O=C1N=C(N2CCOCC2)SC1=Cc1ccc(Br)cc1` is ___
43.8

May I ask what inhibition at 10 µM has been recorded for `Cc1ccc(C=C2SC(N3CCCC3)=NC2=O)cc1` ?
49.8

Query: inhibition at 10 µM; subject: Cc1ccc(C=C2SC(N3CCSCC3)=NC2=O)cc1 [Example 14, hydrobromide]
89.4

Look up inhibition at 10 µM: CC(C)(C)c1ccc(C=C2SC(N3CCCC3)=NC2=O)cc1 [Example 199, hydrobromide]
4.43

Reported inhibition at 10 µM for `O=C1N=C(N2CCOCC2)SC1=Cc1ccc(OS(=O)(=O)c2ccccc2)cc1` : what is it?
27.8
